Tested on: Saccharomyces cerevisiae
Assay: protein stability index of tFT-peptide fusion (C-terminal peptide) (PSI (0-1 scale)); higher = more stable (slower turnover);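 also: PSI is a weighted mean of sequencing reads over stability bins, variants kept only with over 10 reads, mCherry proximal and sfGFP distal, peptide attached via GGGS linker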
Conditions: genetic background: das1 deletion; temperature: 37 C
Value Type: protein stability index
Keep it simple and answer with nothing but the number.

*Q* # get_value(readout='protein stability index', item= CVCLWCFLVWAR )
*A* 0.458

*Q* GET /values?readout=protein stability index&item= VLLRSRLLRRLS
*A* 0.72

*Q* # protein stability index lookup, item VFSFLYHVVPVL
*A* 0.505

*Q* // returns reported protein stability index for input WFFRCLFLLSLF
*A* 0.601

*Q* Field request: protein stability index | item: DLQTVGLTRFIV
*A* 0.714

*Q* Name the reported protein stability index value associated with the sequence AGAFRIVWWALR
*A* 0.711

*Q* Data request, read-out protein stability index, for AFLLVLFCCVSC
*A* 0.346

*Q* Could you tell me which protein stability index is on file for WWADRLVGVCIV ?
*A* 0.587

*Q* For the sequence FLLYRFSLVGCF , what protein stability index is on record?
*A* 0.194

*Q* Which protein stability index reading was recorded for the sequence ILRIYIPRWRRQ ?
*A* 0.729

*Q* Bench note: what protein stability index did ARRGHNCAAVFL show?
*A* 0.745

*Q* For the sequence VSCYYVFLIPFW , what protein stability index is on record?
*A* 0.578

*Q* Quick one: protein stability index for NFCVLLQFCVLV ?
*A* 0.483

*Q* Need protein stability index, item LPTVSRPGALIC
*A* 0.69

*Q* GET /values?readout=protein stability index&item= IACVLSIFLNAA
*A* 0.435

*Q* I would be grateful if you could share the reported protein stability index for VFLRRFGVPWVF .
*A* 0.661

*Q* Given the sequence IDSEVHLWKRSA , what is its reported protein stability index?
*A* 0.719

*Q* Field request: protein stability index | item: LLYYQVFKTRRL
*A* 0.696

*Q* Using the record for NNGLLLDILIKA , report its protein stability index.
*A* 0.463

*Q* Which protein stability index reading was recorded for the sequence LVSVLLLFWFLF ?
*A* 0.515

*Q* Bench note: what protein stability index did RLFSPPVLATPS show?
*A* 0.696

*Q* Item under review: LLSFYFVLAYMV . Reported protein stability index?
*A* 0.477

*Q* # query: protein stability index of entry VLRLVLFVLISV
*A* 0.387

*Q* Returns the measured protein stability index for the input sequence. Input: GIGYMFLNVWLV
*A* 0.421

---

Test system: Saccharomyces cerevisiae
Test: protein stability index of tFT-peptide fusion (C-terminal peptide) (PSI (0-1 scale)); higher = more stable (slower turnover)
Details: genetic background: wild type; temperature: 30 C
Value Type: protein stability index

*Q* Sample GAPPRPKTGRTF — what was its protein stability index?
*A* 0.712

*Q* Return reported protein stability index; argument: WRRPKAGRHAPC
*A* 0.685

*Q* What does the data say about its protein stability index? Entry: PSPPSHRFPAIP
*A* 0.697

*Q* I would be grateful if you could share the reported protein stability index for RRTEGLATAGRV .
*A* 0.666

*Q* Sample GEYYAPVVGRRF — what was its protein stability index?
*A* 0.712

*Q* Request the reported protein stability index associated with KQDIETDKKEEG
*A* 0.666

*Q* What value of protein stability index has been recorded for this entry: SAGGCSVMAGNG
*A* 0.709

*Q* Entry SIVSTPGATACL has what protein stability index?
*A* 0.673

*Q* Tell me the measured protein stability index of SQAALLIPLFSL , please.
*A* 0.681

*Q* May I ask what protein stability index has been recorded for LGRGGVAWGAWW ?
*A* 0.836

*Q* Recorded protein stability index of VSAPLGRFSGLV , please.
*A* 0.685

*Q* Which protein stability index is listed for HRFFDGVRFPGH ?
*A* 0.692

*Q* Name the reported protein stability index value associated with the sequence ARWRVGLWRGAS
*A* 0.448

*Q* // protein stability index lookup, key: LGGVLVGDWVGI
*A* 0.712

*Q* Look at this sequence and give its reported protein stability index. FCSSVSFPPAPL
*A* 0.642

*Q* Any idea what protein stability index was measured for NALGRPSAFILT ?
*A* 0.695

*Q* Reported protein stability index for PFPLPPLCPPAA : what is it?
*A* 0.722

*Q* # get_value(readout='protein stability index', item= TLYHWELEPRNP )
*A* 0.664

*Q* Which protein stability index value belongs to LDRDTSCYMLDF ?
*A* 0.718

*Q* Need protein stability index, item IESFFLFSFSFP
*A* 0.762

*Q* Would you kindly share the measured protein stability index for SVGLLLSPFPPL ?
*A* 0.688

*Q* Quick check: protein stability index of RLPPLLVPFPSS ?
*A* 0.694

*Q* Fill in the blank: the reported protein stability index of RVLGGGVLGVLV is ____.
*A* 0.711

*Q* Fill blank: measured protein stability index of the sequence YPHPPRPSNQLF is ____.
*A* 0.615

*Q* Quick check: protein stability index of CRWGGGGRRGRG ?
*A* 0.723

*Q* Query (sequence): HPPLPRPPPPPP ; field requested: protein stability index
*A* 0.645

*Q* Give the measured protein stability index of WVRIGVEFGWGE .
*A* 0.689

*Q* // lookup protein stability index for FCSPLPSSPPLP
*A* 0.658

*Q* protein stability index for PPPPPLPPPPPT ?
*A* 0.696

*Q* // query protein stability index value for entry IRLCAASFMVVF
*A* 0.474

*Q* I'd like to know its protein stability index. The sequence in question is RCTRAAGLAAPA
*A* 0.691

*Q* Value lookup for protein stability index; key = QSWVNIGCRGAW
*A* 0.72

Taken from the supplement of paper PMC10724198.
